# tested-system: T1, TBC1D23 C-terminal domain I675W (mouse, UniProt Q8K0F1 559-677, I675W)
# T1 construct: TBC1D23, mouse, UniProt Q8K0F1, C-terminal domain (limits as m7, in data S3); source: E. coli BL21 plyS, purified (glutathione-Sepharose, GST cleaved with thrombin, Superdex 200)
# T1 sequence (Q8K0F1 559-677 I675W): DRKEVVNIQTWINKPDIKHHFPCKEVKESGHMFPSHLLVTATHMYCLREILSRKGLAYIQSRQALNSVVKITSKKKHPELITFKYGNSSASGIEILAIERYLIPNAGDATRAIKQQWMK
# test: ITC; peptide (0.8 to 5 mM) titrated into 100 μM TBC1D23 C-terminal domain, 20°C, 100 mM NaCl, 100 mM tris pH 7.4, 1 mM TCEP, Nano ITC
# particulars: both partners purified
readout-type: Kd

Any idea what Kd was measured for DDNTLYHRGFTED (peptide, UniProt O14662 209-221, looked up, syntaxin-16, human, residues 209 to 221, beginning 209DDNTLY (T212, L213, Y214, R216); also called syntaxin-16 peptide; wild type; source: peptide) [syntaxin-16 (209–221) peptide] ?
> 300 µM
